Where these numbers come from: patent US20140081017A1

Could you please report measured Concentration of Methylgene compound to synergize fluconazole MIC to 4 ug/mL for the items listed next?
- Test system: C. glabrata
- EXPERIMENT: Checkerboard FIC assay in combination with fluconazole (MIC alone and in combination, FICI)
- Type: cell-based, Candida glabrata
- MEASUREMENT CONDITIONS: in combination with fluconazole, C. glabrata; fluconazole MIC lowered to 4 ug/mL
Give the value in µg/mL but do not write µg/mL after it.

Any idea what Concentration of Methylgene compound to synergize fluconazole MIC to 4 ug/mL was measured for "O=C(Cc1csc(CCCCc2ccccc2)n1)NO" ?
2

Another: "CN1CCN(CCNC(=O)Nc2cccc(CCCCc3ccc(CC(=O)NO)cc3)c2)CC1"
4

Another: "CC(=O)Nc1cccc(CCCCc2ccc(CC(=O)NO)cc2)c1"
4

Another: CC(C(=O)NO)c1ccc(CCC(O)Cc2ccccc2)cc1 (stereo not shown)
4

Another: "O=C(Cc1ccc(CCCCc2ccc(C(=O)O)cc2)cc1)NO"
16

Another: "O=C(Cc1cnc(CCCCc2ccccc2)s1)NO"
4

Another: "O=C(Cc1ccc(CCCCc2ccc(NC(=O)NCCN3CCOCC3)cc2)cc1)NO"
4

Another: "CN1CCC(C(=O)Nc2cccc(CCCCc3ccc(CC(=O)NO)cc3)c2)CC1"
4

Another: "Cn1ccc2cc(CCCCc3ccc(CC(=O)NO)cc3)ccc21"
0.12

Another: "COC(=O)Nc1ccc(CCCCc2ccc(CC(=O)NO)cc2)cc1"
0.5

Another: "Cc1ccc(CCCCc2ccc(CC(=O)NO)cc2)cc1"
0.12

Another: "O=C(Cc1ccc(CCCCc2ccc(-c3ccccc3)cc2)cc1)NO"
0.12

Another: "O=C(Cc1ccc(CCCCc2cccc(NS(=O)(=O)CCN3CCOCC3)c2)cc1)NO"
2

Another: "CN1CCC(C(=O)Nc2ccc(CCCCc3ccc(CC(=O)NO)cc3)cc2)CC1.Cl"
1

Another: O=C(Cc1ccc(CCC(O)Cc2ccccc2)cc1)NO (stereo not shown)
16

Another: "O=C(Cc1ccc(CCC/C(=N\O)c2ccccc2)cc1)NO"
4

Another: O=C(Cc1ccc(C(O)CCCc2ccccc2)cc1)NO (stereo not shown)
8

Another: "CN1CCN(CCS(=O)(=O)Nc2ccc(CCCCc3ccc(CC(=O)NO)cc3)cc2)CC1"
16

Another: "CN1CCN(CCS(=O)(=O)Nc2cccc(CCCCc3ccc(CC(=O)NO)cc3)c2)CC1"
4

Another: "COCCOCCOCCOCCOCCOc1ccc(CCCCc2ccc(CC(=O)NO)cc2)cc1"
0.5

Another: "Nc1ccc(CCCCc2ccc(CC(=O)NO)cc2)cc1"
1

Another: "CC(=O)Nc1ccc(CCCCc2ccc(CC(=O)NO)cc2)cc1"
2

Another: O=C(Cc1ccc(CCCC(O)c2ccccc2)cc1)NO (stereo not shown)
8

Another: "O=C(Cc1ccc(CCCC(=O)c2ccccc2)cc1)NO"
2

Another: "O=C(Cc1ccc(CCCCc2cccc(NC(=O)CO)c2)cc1)NO"
4

Another: CC(CCCc1ccc(CC(=O)NO)cc1)c1ccccc1 (stereo not shown)
0.12

Another: "O=C(Cc1ccc(CCCCc2ccc(C(=O)N3CCN(C/C=C/c4ccccc4)CC3)cc2)cc1)NO"
0.25

Another: O=C(Cc1ccc(CCC(F)Cc2ccccc2)cc1)NO (stereo not shown)
1

Another: "Nc1ccccc1CCCCc1ccc(CC(=O)NO)cc1"
2

Another: "O=C(Cc1ccc(CCCCc2ccc(OCCCN3CCOCC3)cc2)cc1)NO"
0.5

Another: "O=C(Cc1ccc(CCCCc2ccc(C(=O)N3CCN(CCn4ccnc4)CC3)cc2)cc1)NO"
2

Another: "COCCOCCOCC(=O)Nc1ccc(CCCCc2ccc(CC(=O)NO)cc2)cc1"
1

Another: "Nc1cccc(CCCCc2ccc(CC(=O)NO)cc2)c1"
0.5

Another: "CN(C)CCSCC(=O)Nc1cccc(CCCCc2ccc(CC(=O)NO)cc2)c1"
4

Another: "CC(=O)Nc1ccccc1CCCCc1ccc(CC(=O)NO)cc1"
16

Another: "COCCOCCOCC(=O)Nc1cccc(CCCCc2ccc(CC(=O)NO)cc2)c1"
2

Another: O=C(Cc1ccc(C(F)CCCc2ccccc2)cc1)NO (stereo not shown)
1

Another: O=C(Cc1ccc(CCCC(F)c2ccccc2)cc1)NO (stereo not shown)
1

Another: "COCCOCCOCCNC(=O)c1ccc(CCCCc2ccc(CC(=O)NO)cc2)cc1"
1

Another: "O=C(Cc1ccc(CCCCc2ccc(F)cc2F)cc1)NO"
0.25
